condition-summary: in acetone, 318.15 K
recorded-metric: solubility (mole fraction)

{"molecule": "CC(=O)N(CC(O)CO)c1c(I)c(C(=O)NCC(O)CO)c(I)c(C(=O)NCC(O)CO)c1I (stereo unspecified)", "assay-result": 0.00062}

---

condition-summary: in DMSO, 313.15 K
recorded-metric: solubility (mole fraction)

{"molecule": "CC(=O)N(CC(O)CO)c1c(I)c(C(=O)NCC(O)CO)c(I)c(C(=O)NCC(O)CO)c1I (stereo unspecified)", "assay-result": 0.000624}

---

condition-summary: in n-propanol, 318.15 K
recorded-metric: solubility (mole fraction)

{"compound": "CC(=O)N(CC(O)CO)c1c(I)c(C(=O)NCC(O)CO)c(I)c(C(=O)NCC(O)CO)c1I (stereo unspecified)", "assay-result": 0.00181}

---

condition-summary: in 1,4-dioxane, 303.15 K

{"molecule": "CC(=O)N(CC(O)CO)c1c(I)c(C(=O)NCC(O)CO)c(I)c(C(=O)NCC(O)CO)c1I (stereo unspecified)", "solubility (mole fraction)": 0.0001}

---

condition-summary: in toluene, 308.15 K

{"compound": "CC(=O)N(CC(O)CO)c1c(I)c(C(=O)NCC(O)CO)c(I)c(C(=O)NCC(O)CO)c1I (stereo unspecified)", "solubility (mole fraction)": "7.57e-05"}

---

condition-summary: in n-propanol, 313.15 K

{"compound": "CC(=O)N(CC(O)CO)c1c(I)c(C(=O)NCC(O)CO)c(I)c(C(=O)NCC(O)CO)c1I (stereo unspecified)", "solubility (mole fraction)": 0.00156}

---

condition-summary: in acetone, 293.15 K
recorded-metric: solubility (mole fraction)

{"compound": "CC(=O)N(CC(O)CO)c1c(I)c(C(=O)NCC(O)CO)c(I)c(C(=O)NCC(O)CO)c1I (stereo unspecified)", "assay-result": 0.000256}

---

condition-summary: in n-butanol, 308.15 K

{"compound": "CC(=O)N(CC(O)CO)c1c(I)c(C(=O)NCC(O)CO)c(I)c(C(=O)NCC(O)CO)c1I (stereo unspecified)", "solubility (mole fraction)": 0.000601}

---

condition-summary: in n-butanol, 303.15 K

{"compound": "CC(=O)N(CC(O)CO)c1c(I)c(C(=O)NCC(O)CO)c(I)c(C(=O)NCC(O)CO)c1I (stereo unspecified)", "solubility (mole fraction)": 0.0005}

---

condition-summary: in isopropanol, 293.15 K
recorded-metric: solubility (mole fraction)

{"compound": "CC(=O)N(CC(O)CO)c1c(I)c(C(=O)NCC(O)CO)c(I)c(C(=O)NCC(O)CO)c1I (stereo unspecified)", "recorded-metric": "solubility (mole fraction)", "assay-result": 0.000555}

---

condition-summary: in ethyl acetate, 318.15 K

{"compound": "CC(=O)N(CC(O)CO)c1c(I)c(C(=O)NCC(O)CO)c(I)c(C(=O)NCC(O)CO)c1I (stereo unspecified)", "solubility (mole fraction)": 0.000414}

---

condition-summary: in isopropanol, 318.15 K

{"compound": "CC(=O)N(CC(O)CO)c1c(I)c(C(=O)NCC(O)CO)c(I)c(C(=O)NCC(O)CO)c1I (stereo unspecified)", "solubility (mole fraction)": 0.00137}

---

condition-summary: in acetone, 323.15 K

{"compound": "CC(=O)N(CC(O)CO)c1c(I)c(C(=O)NCC(O)CO)c(I)c(C(=O)NCC(O)CO)c1I (stereo unspecified)", "solubility (mole fraction)": 0.000741}
